- Protocol Notes: ELISA assay of peptide motif binding to bleached hair
- Set-up: species or system human; concentration or dose not given beside the values
- Assay Setup: bleached human hair; biotinylated peptide, streptavidin-HRP/TMB, A450; relative to positive control SEQ ID NO:124
- Method: The hair samples used were 6-inch (15.2 cm) medium brown human hairs obtained from International Hair Importers and Products (Bellerose, N.Y.). […] Bleached hair samples were prepared and placed into wells of a custom 24-well biopanning apparatus, as described in Example 1. […] Then, stop solution (200 μL of 2 M H2SO4) was added to each well and the solutions were transferred to a 96-well plate and the A450 was measured using a microplate spectrophotometer (Molecular Devices, Sunnyvale, Calif.). […]
Binding Activity % Relative to Control below 90% gives Not fulfilled; Binding Activity % Relative to Control at or above it gives Fulfilled.

121 (SPIKRPPLS; Hair-binding peptide motif) [compound 121]    Not fulfilled
124 (TPPELLHGDPRS; Control hair-binding peptide) [compound 124]    Fulfilled

IN: Assess whether reported Binding Activity % Relative to Control for 123 (RLLRLLRLLRLL; Hair-binding peptide motif) [compound 123] sits at 90% or higher.
OUT: Fulfilled

IN: State whether the measured Binding Activity % Relative to Control reaches 90%, counting equality as reaching it, for 119 (SNTTPSPSP; Hair-binding peptide motif) [compound 119]
OUT: Fulfilled
